src = paper PMC8214093

Molecular target: USPSa-S244D (Staphylococcus aureus, UniProt A0A7U7EVR3, S244D)
Sequence (A0A7U7EVR3 213-364 S244D): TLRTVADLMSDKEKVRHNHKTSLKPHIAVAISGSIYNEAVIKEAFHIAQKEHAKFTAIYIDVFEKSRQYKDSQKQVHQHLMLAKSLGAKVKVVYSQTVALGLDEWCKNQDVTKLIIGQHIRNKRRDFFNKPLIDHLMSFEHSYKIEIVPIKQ
Assay: MicroScale Thermophoresis (initial fluorescence change) nucleotide binding
Details: S244D mutant; MST, initial fluorescence; read-out: Dissociation Constant (KD) ± Standard Deviation
Reported property: pKd
Answers are plain numbers, as −log10 of the molar value.

Reported pKd, compound `Nc1ncnc2c1ncn2[C@@H]1O[C@H](COP(=O)(O)O)[C@@H](O)[C@H]1O` : ____
2.39
